Provenance of the data: patent US6168776A

MEASUREMENT_NOTES: Metabolism of [14C] Chrysamine G in mouse brain and liver
STUDY_CONDITIONS: mouse, iv, 0.05 uCi/g
EXPERIMENTAL_READOUT: remaining at 1 h

Consider the compound `O=C(O)c1cc(N=Nc2ccc(-c3ccc(N=Nc4ccc(O)c(C(=O)O)c4)cc3)cc2)ccc1O` and give its measured remaining at 1 h.
> 95%

====

ASSAYED_TARGET: Aβ(10-43) (Homo sapiens)
Sequence (P05067 681-714): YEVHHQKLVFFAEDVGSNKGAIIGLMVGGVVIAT
EXPERIMENTAL_READOUT: Kd

Requested field: Kd. Item: `O=C(O)c1cc(N=Nc2ccc(-c3ccc(N=Nc4ccc(O)c(C(=O)O)c4)cc3)cc2)ccc1O`
250 to 400 nM
